The values you see were collected from patent US20140163050A1.

experiment: C-7 plasma pharmacokinetics after single oral administration; type: in vivo, human; conditions: human, plasma, po, 100 mg, plasma; single oral 100 mg, Cohort II, n = 4; geometric mean [% CV geo mean]; read-out: Cmax
experimental.endpoint: Cmax

>  <compound>
CC(C)c1cc2[nH]c(=O)n(NS(C)(=O)=O)c(=O)c2cc1-c1ccnn1C [Compound C-7]

>  <observed.measurement>
2980 ng/mL

$$$$

----------
Tested on: mouse
Experiment: Oral bioavailability: in vivo orally active (audiogenic mouse test and/or MES test)
Description: The oral bioavailability was tested using the audiogenic mouse test (Audiogenic seizures, R. L. Collins; Chapter 14, pages: 347-372. In: Experimental Models of Epilepsy; By: Pupura, Penry, Tower, Woodbury, Walter, Raven Press, New York, 1972. Standard Book Number: 0-911216-26-X) and/or the MES test.

>  <molecule>
CC(O)c1cc2c(=O)n(NS(C)(=O)=O)c(=O)[nH]c2cc1C(F)(F)F (centres unmarked) [Compound A-1]

>  <target.system>
mouse

>  <In vivo orally active>
Yes

$$$$
>  <molecule>
CCc1cc2[nH]c(=O)n(NS(C)(=O)=O)c(=O)c2cc1-c1ccnn1C [Compound C-11]

>  <target.system>
mouse

>  <In vivo orally active>
Yes

$$$$
>  <molecule>
CC(C)n1nccc1-c1cc2c(=O)n(NS(C)(=O)=O)c(=O)[nH]c2cc1C(C)(F)F [Compound C-16]

>  <target.system>
mouse

>  <In vivo orally active>
Yes

$$$$
>  <molecule>
CCC(OC(C)C)c1cc2c(=O)n(NS(C)(=O)=O)c(=O)[nH]c2cc1C(F)(F)F (centres unmarked) [Compound A-7]

>  <target.system>
mouse

>  <In vivo orally active>
Yes

$$$$
>  <molecule>
Cn1nccc1-c1cc2c(=O)n(NS(C)(=O)=O)c(=O)[nH]c2cc1C(F)(F)F [Compound C-18]

>  <target.system>
mouse

>  <In vivo orally active>
Yes

$$$$
>  <molecule>
CCCC(O)c1cc2c(=O)n(NS(C)(=O)=O)c(=O)[nH]c2cc1C(F)(F)F (centres unmarked) [Compound A-15]

>  <target.system>
mouse

>  <In vivo orally active>
Yes

$$$$
>  <molecule>
COCCC(O)c1cc2c(=O)n(NS(C)(=O)=O)c(=O)[nH]c2cc1C(F)(F)F (centres unmarked) [Compound A-18]

>  <target.system>
mouse

>  <In vivo orally active>
Yes

$$$$
>  <molecule>
Cn1nccc1-c1cc2c(=O)n(NS(C)(=O)=O)c(=O)[nH]c2cc1C(C)(F)F [Compound C-15]

>  <target.system>
mouse

>  <In vivo orally active>
Yes

$$$$

----------
assay: C-7 plasma pharmacokinetics after single oral administration; assay type: in vivo, human; details: human, plasma, po, 50 mg, plasma; single oral 50 mg, Cohort I, n = 6; geometric mean [% CV geo mean]; read-out: AUClast

>  <record.smiles>
CC(C)c1cc2[nH]c(=O)n(NS(C)(=O)=O)c(=O)c2cc1-c1ccnn1C

>  <AUC(0-t), ng·h/mL>
10700

$$$$

----------
test: C-7 plasma pharmacokinetics after single oral administration; format: in vivo, human; settings: human, plasma, po, 15 mg, plasma; single oral 15 mg, Cohort III, n = 3; geometric mean [% CV geo mean]; read-out: AUC0-6 hr

>  <record.smiles>
CC(C)c1cc2[nH]c(=O)n(NS(C)(=O)=O)c(=O)c2cc1-c1ccnn1C

>  <AUC(0-t)>
2130 ng·h/mL

$$$$
